system: monoclonal antibody produced by hybridoma line 28E2; experiment: CEDIA tacrolimus assay specificity (cross-reactivity); assay type: binding, mice; conditions: tacrolimus metabolites, 20 ng/ml in whole blood; (measured concentration)/20 ng/ml x 100%
T means recorded % Cross-Reactivity is 40% or above; F means it is below 40%.

Solved cases (2 shown):
[[record]]
compound = "C=CCC1C=C(C)CC(C)CC(O)C2OC(O)(C(=O)C(=O)N3CCCCC3C(=O)OC(C(C)=CC3CCC(O)C(OC)C3)C(C)C(O)CC1=O)C(C)CC2OC (centres unmarked)"
group_label = "F"

[[record]]
compound = "C=CC[C@@H]1/C=C(\\C)C[C@H](C)C[C@H](OC)[C@H]2O[C@@](O)(C(=O)C(=O)N3CCCC[C@H]3C(=O)O[C@H](/C(C)=C/[C@@H]3CC[C@@H](O)[C@H](OC)C3)[C@H](C)[C@@H](O)CC1=O)[C@H](C)C[C@@H]2OC"
group_label = "T"


## Task Reported % Cross-Reactivity reaches at least 40% for C=CCC1C=C(C)CC(C)CC(OC)C2OC(O)(C(=O)C(=O)N3CCCCC3C(=O)OC(C(C)=CC3CCC(O)C(O)C3)C(C)C(O)CC1=O)C(C)CC2O (centres unmarked) ?
## Result F

## Task Now consider C=CCC1C=C(C)CC(C)CC(OC)C2OC(O)(C(=O)C(=O)N3CCCCC3C(=O)OC(C(C)=CC3CCC(O)C(O)C3)C(C)C(O)CC1=O)C(C)CC2OC (centres unmarked) and answer again.
## Result F

## Task Now consider C=CCC1C=C(C)CC(C)CC(OC)C2OC(O)(C(=O)C(=O)N3CCCCC3C(=O)OC(C(C)=CC3CCC(O)C(OC)C3)C(C)C(O)CC1=O)C(C)CC2O (centres unmarked) and answer again.
## Result F
